Target: T1, human NPR1 extracellular domain expressed with a C-terminal myc-myc-hexahistidine (hNPR1-MMH) (human, UniProt P16066 33-473)
T1 construct: also called hNPR.mmh; monomeric human NPR1
T1 sequence (P16066 other isoform, or with tags, fused parts or gaps): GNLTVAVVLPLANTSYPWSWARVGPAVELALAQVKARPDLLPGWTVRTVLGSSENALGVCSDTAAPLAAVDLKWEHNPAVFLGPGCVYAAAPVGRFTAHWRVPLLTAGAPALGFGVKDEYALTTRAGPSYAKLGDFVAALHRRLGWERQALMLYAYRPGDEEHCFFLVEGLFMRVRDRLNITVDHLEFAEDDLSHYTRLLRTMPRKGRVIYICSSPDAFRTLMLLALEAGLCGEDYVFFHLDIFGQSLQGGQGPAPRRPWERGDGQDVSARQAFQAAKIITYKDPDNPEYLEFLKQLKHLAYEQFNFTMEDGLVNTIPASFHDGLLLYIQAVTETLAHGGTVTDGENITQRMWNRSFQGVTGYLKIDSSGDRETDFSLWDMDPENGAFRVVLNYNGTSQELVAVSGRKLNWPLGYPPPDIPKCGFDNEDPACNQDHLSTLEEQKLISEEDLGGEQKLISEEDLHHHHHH
Experiment: SPR, mAb captured, 25 C
Description: Equilibrium dissociation constant (KD) for different NPR1 reagents binding to purified anti-NPR1 monoclonal antibodies (mAbs) were determined using a real-time surface plasmon resonance based Biacore 4000 biosensor. All binding studies were performed in 10 mM HEPES, 150 mM NaCl, 3 mM EDTA, and 0.05% v/v Surfactant Tween-20, pH 7.4 (HBS-ET) running buffer at 25° C. and 37° C. […]
In this section, each of the binders is paired with its reported 100 nM Ag Bound (RU).
Report as a plain number; the unit RU is understood.

Example cases with answers are listed next.
| binder | 100 nM Ag Bound (RU) |
| --- | --- |
| mAb25491 (antibody, V domains shown) VH: QVQLVQSGAEVMKPGASVKVSCKASGYTFTGYYIHWVRQAPGQGLEWMGWITPNSGATNYAQKFQGRVTLTRDTSISTAYMELTRLKSDDTAVYYCARGGQLEFFYYYYGMDVWGQGTTVTVSS VL: DIQMTQSPSSLSASAGDRVTITCRASQSIDSYLNWYQQKPGKAPKLLISATSGFQSGVPSRFSGSGSGTDFTLTISSLQPEDFGTYYCQQSYTTPITFGQGTRLEIK | 37 |
| mAb22033 (antibody, V domains shown) VH: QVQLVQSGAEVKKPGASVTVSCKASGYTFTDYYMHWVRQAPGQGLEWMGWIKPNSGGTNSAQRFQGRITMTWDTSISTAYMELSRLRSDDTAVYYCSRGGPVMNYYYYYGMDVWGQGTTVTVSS VL: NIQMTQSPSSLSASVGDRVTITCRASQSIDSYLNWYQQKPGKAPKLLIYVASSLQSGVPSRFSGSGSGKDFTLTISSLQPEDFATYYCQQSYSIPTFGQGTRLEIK | 30 |
| mAb25502 (antibody, V domains shown) VH: QLQLQESGPGLVKPSETLSLTCTVSGGSISSSSYYWGWIRQPPGKGLEWIGSIYYSGSPYYIPSLKSRVTISVDTSKNQFSLKLSSVTAADTAMYYCARQGRGIARAGPFDYWGQGTLVTVSS VL: DIQMTQSPSSLSASVGDRVTITCRASQGISNYLAWYQEKPGKVPKLLIYAASTLQSGVPSRFSGSGSGTDFTLTITSLQSEDVATYYCQKYNSAPPWTFGQGTKVEIK | 2 |
| mAb25479 (antibody, V domains shown) VH: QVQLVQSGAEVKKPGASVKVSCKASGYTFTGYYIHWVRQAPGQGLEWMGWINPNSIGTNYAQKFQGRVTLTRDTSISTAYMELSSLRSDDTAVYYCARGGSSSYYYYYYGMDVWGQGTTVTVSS VL: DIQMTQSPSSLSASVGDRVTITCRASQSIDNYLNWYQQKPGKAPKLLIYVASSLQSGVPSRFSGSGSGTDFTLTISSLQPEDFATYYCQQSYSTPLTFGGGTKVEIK | 16 |

[ask] Quick one: 100 nM Ag Bound (RU) of mAb22805 (antibody, V domains shown) VH: QVQLVESGGGVVQPGRSLRLSCAASGFTFSTYGMHWVRQAPGKGLEWVALIWNDGSNKYYADSVKGRFTISRDNSKNTLDLQMNSLRAEDTAVYYCARLNTRITGTTNLDYWGQGTLVTVSS VL: DIQMTQSPSSLSASVGDRVTVSCRASQSIANYLNWYQQKPGKAPNLLIYGAYTLQSGVPSRFRGSGSGTDFTLTISSLQPEDFATYYCQQTYSTPPITFGQGTRLEIK ?
[reply] 0

[ask] Quick one: 100 nM Ag Bound (RU) of mAb22809 (antibody, V domains shown) VH: QLQLRESGPGLVKPSETLSLTCTVSGGSINDNSFFWDWIRQTPGRGLEWIGNIFFDGNTYYTPSLKSRVIISVDMSQNQFSLRLTSVTAADTALYYCARHKRSMTAWGFFDYWGQGTLVTVSS VL: DIQMTQSPSSLSASVGDRVTITCRASKRINTYLNWYQQKPGKAPKVLIYSASNLQSGVPSRFSGSGSGTDFTLTINSLQPEDFATYFCQQSFSAPPITFGQGTRLEIK ?
[reply] 0

[ask] Quick one: 100 nM Ag Bound (RU) of mAb25497 (antibody, V domains shown) VH: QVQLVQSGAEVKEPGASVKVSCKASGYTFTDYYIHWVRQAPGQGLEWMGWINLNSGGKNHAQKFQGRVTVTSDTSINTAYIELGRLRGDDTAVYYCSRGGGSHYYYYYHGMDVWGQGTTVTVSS VL: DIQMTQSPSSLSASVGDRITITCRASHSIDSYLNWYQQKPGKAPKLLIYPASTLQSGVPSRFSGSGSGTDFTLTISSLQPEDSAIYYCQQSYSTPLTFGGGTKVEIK ?
[reply] 22

Values from patent US20240309103A1
